Data origin: PubChem BioAssay (NCI)

- Test system: UO-31 renal
- Assay Overview: NCI tumour cell line growth inhibition, 48 h
Endpoint: TGI (µM)
Report the figure in µM without appending any unit label.

Before answering, review these 4 worked examples.
{"Compound": "CC1(c2ccc(Cl)s2)CC(c2ccc(Cl)s2)=C(C#N)C(=C(C#N)C#N)N1 (stereo not drawn)", "TGI, µM": 34.5}
{"Compound": "Cc1cc(N2CCOCC2)nc(N(CCCNc2ccnc3cc(Cl)ccc23)Cc2ccco2)n1", "TGI, µM": 6.77}
{"Compound": "COc1ccc(/C=C2\\CCC(CCN(C)C)(C3=CCCC3)C2=O)cc1Br (stereo not drawn)", "TGI, µM": 17.6}
{"Compound": "CCCN(CCC)c1ccc(/C=N/NC(=O)c2cccnc2)c(OC)c1", "TGI, µM": 71.6}

Please look up its TGI: "CN1CCN(c2ccc(NC(=O)c3cncnc3Nc3ccc(OCc4ccccn4)c(Cl)c3)cc2)CC1"
9.97

Please look up its TGI: "O=c1cc(N=Nc2ccc(Cl)c(Cl)c2)[nH]c(=O)[nH]1"
4.93

Please look up its TGI: "N#Cc1cc(S(=O)(=O)Nc2nnc(-c3ccccc3)c(-c3ccccc3)n2)c(SCc2ccccc2)cc1Cl"
71.3

Please look up its TGI: "N#CC(C#N)N=Nc1ccc(-c2nc3ccccc3o2)cc1"
26
